measurementLabel: melting point

[[record]]
molecule = "Clc1ccc2[nH]c(-c3nnc(Nc4ccccc4)o3)cc2c1 [ABM310]"
result = "272 to 274 °C"

[[record]]
molecule = "CCc1c(-c2nnc(NCCc3ccccc3)o2)[nH]c2ccc(Cl)cc12 [ABM317]"
result = "175 to 177 °C"

[[record]]
molecule = "Cc1c(-c2nnc(SCCc3ccccc3)o2)[nH]c2ccc(Cl)cc12 [ABM322]"
result = "222 to 224 °C"

[[record]]
molecule = "Cc1c(-c2nnc(NCCc3ccccc3)o2)[nH]c2ccc(Cl)cc12 [ABM319]"
result = "195 to 197 °C"

[[record]]
molecule = "CCc1c(-c2nnc(NCc3ccccc3)o2)[nH]c2ccc(Cl)cc12 [ABM313]"
result = "216 to 218 °C"

[[record]]
molecule = "Clc1ccc2[nH]c(-c3nnc(NCc4ccccc4)o3)cc2c1 [ABM314]"
result = "245 to 247 °C"

[[record]]
molecule = "Cc1ccc(CSc2nnc(-c3[nH]c4ccc(Cl)cc4c3C)o2)cc1 [ABM324]"
result = "212 to 214 °C"

[[record]]
molecule = "CCc1c(-c2nnc(SCc3ccccc3)o2)[nH]c2ccc(Br)cc12 [ABM305]"
result = "183 to 185 °C"

[[record]]
molecule = "CCc1c(-c2nnc(SCCCc3ccccc3)o2)[nH]c2ccc(Br)cc12 [ABM326]"
result = "134 to 135 °C"


In the following, a different molecule is considered.
Exam item: What value of measured melting point is listed for Clc1ccc2[nH]c(-c3nnc(NCCc4ccccc4)o3)cc2c1 [ABM318] ?
Marked response: 235 to 237 °C
